# assay.details: NCI Yeast Anticancer Drug Screen. Data for the sgs1 mgt1 strain (AID 161);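 also: 0% = growth of cultures given vehicle only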
# test.conditions: S. cerevisiae sgs1 mgt1 strain, at 50.0 µM
This is part of a sample that, as a whole, favours compounds with a hit. Of some 79,000 tested, about 15% had one in any assay. Calls of active or inactive are those of the source. Rule as the data show it: active = growth inhibition above about 70%; inactive = the rest.
Classes used: yes = active, no = inactive

{"columns": ["molecule", "assigned.label"],
 "data": [
  ["COC1=C(C)C(=O)C2=C(C1=O)C1C3CC4=C(C(=O)C(OC)=C(C)C4=O)C(CNC(=O)C(C)=O)N3C(C#N)C(C2)N1C (configuration not stated)", "yes"],
  ["COc1ccc2c(c1)CCC1OC(c3cccnc3)OC21 (configuration not stated)", "yes"],
  ["Nc1ccc(Cl)c2cccnc12", "yes"],
  ["Cc1ccc2c(c1)SSc1ccc(C)cc1SS2", "yes"],
  ["O=C(O)CC(C(=O)O)C(c1cccc2ccccc12)c1cccc2ccc3ccccc3c12 (configuration not stated)", "yes"],
  ["CCOC(=O)/C(C#N)=C/c1ccccc1Br", "no"],
  ["O=S(NCc1ccccc1)c1ccccc1 (configuration not stated)", "no"],
  ["O=C(CC(=O)c1ccc(O)cc1)c1ccccc1", "no"],
  ["COc1ccc2c(c1)C(=O)C[C@@H]1[C@](C)(C#N)CCC[C@]21C", "no"],
  ["O/N=C1/C(=C/c2ccc3c(c2)OCO3)CCCC1C(NO)c1ccc2c(c1)OCO2 (configuration not stated)", "yes"],
  ["CCC(=O)Oc1c(Br)c(Br)c(Br)c(Br)c1Br", "no"],
  ["C1=C(c2ccccc2)[P+](c2ccccc2)(c2ccccc2)C=C(c2ccccc2)[P+]1(c1ccccc1)c1ccccc1", "yes"],
  ["CC(=O)Nc1ccc(/C=C2/NC(=S)N(/C=C3\\C(=O)Oc4ccccc4C3=O)C2=O)cc1", "yes"],
  ["ClC1(Cl)c2ccccc2-c2ccccc21", "no"],
  ["[Cu+2].c1ccc2n[nH]nc2c1", "yes"],
  ["CCOCCOC(=O)c1cc([N+](=O)[O-])cc([N+](=O)[O-])c1", "no"],
  ["COC(=O)C1=C(CS(=O)c2ccccc2[N+](=O)[O-])ON(C)C1c1ccccc1 (configuration not stated)", "no"]
]}

----------
# assay.details: NCI Yeast Anticancer Drug Screen. Data for the mec2-1 strain (AID 157)
# test.conditions: S. cerevisiae mec2-1 strain, at 5.0 µM (retest, dose inferred, filed as 0.5), hits give high values
Compounds without any hit were thinned out: in the full panel of roughly 79,000, 15% have a hit.
We use 20% as the dividing line for growth inhibition: on or above the line is Fulfilled, below is Not fulfilled.

{"columns": ["compound", "assigned.label"],
 "data": [
  ["Cc1[nH]nc(C(=O)OC(C)C)c1N=NN(C)C", "Not fulfilled"],
  ["COc1ccc2c(c1)CC1c3c(ccc(OC)c3O)CC2N1C (stereo unspecified)", "Not fulfilled"],
  ["O=NN(CCCl)C(=O)Nc1cc(Cl)ccc1O", "Not fulfilled"],
  ["O=C(O)c1ccccc1/C=N/O", "Not fulfilled"],
  ["OC1(c2ccccc2)c2ccccc2C(O)(c2ccccc2)c2cc3c(cc21)CCCC3 (stereo unspecified)", "Fulfilled"],
  ["Nc1cc(Cl)ccc1SSc1ccc(Cl)cc1N", "Fulfilled"],
  ["c1ccc(NN=C(c2ccccc2)c2ccccc2)cc1", "Not fulfilled"],
  ["O=C1CSc2ccccc2-n2cccc21", "Not fulfilled"],
  ["Cc1cccc(-c2nnc(-c3cccc(C)c3)o2)c1", "Fulfilled"],
  ["CCC(c1ccc(Cl)cc1)C(C#N)c1ccccc1 (stereo unspecified)", "Not fulfilled"],
  ["O=C1/C(=C\\c2ccccc2)C(NC2CCCCC2)c2ccccc21 (stereo unspecified)", "Fulfilled"],
  ["COc1ccc2cc(C(=O)CCCC(C)C(=O)O)ccc2c1 (stereo unspecified)", "Not fulfilled"],
  ["Cc1cc([N+](=O)[O-])ccc1NC(=O)N(C)CCOC(=O)Nc1ccccc1", "Fulfilled"],
  ["Oc1ccc(/C=N/NC(=S)NC2CC3CC2C2C=CCC32)c(O)c1 (stereo unspecified)", "Fulfilled"],
  ["COc1ccc(N2CCN(CC(O)COc3cc4c(c5c3CCCC5)CCCC4)CC2)cc1 (stereo unspecified)", "Not fulfilled"],
  ["O=c1[nH]c2cc(Cl)ccc2nc1/C=C(\\O)c1ccc(N2CCN(c3ccc(/C(O)=C/c4nc5ccc(Cl)cc5[nH]c4=O)cc3)CC2)cc1", "Not fulfilled"],
  ["O=C1c2ccccc2C(=O)N1C(=NCc1ccccc1)c1ccccc1", "Not fulfilled"],
  ["CCCC/C=C1/CCC(CN(C)C)C1=O (stereo unspecified)", "Not fulfilled"],
  ["CC(=O)Oc1cc2c(=O)oc3c(OC(C)=O)c(OC(C)=O)c(OC(C)=O)c4c(=O)oc(c1OC(C)=O)c2c34", "Fulfilled"],
  ["CCN(CC)CCNC(=O)c1ccc(N=Cc2cc(Cl)cc(Cl)c2O)cc1", "Fulfilled"],
  ["CCCCCCCCCCCCSC1=C(N)C(=O)c2ccccc2C1=O", "Not fulfilled"]
]}

----------
The following molecules are shown together with reported growth inhibition values.
# assay.details: NCI Yeast Anticancer Drug Screen. Data for the mlh1 rad18 strain (AID 175)
# test.conditions: S. cerevisiae mlh1 rad18 strain growth inhibition; at 5.0 µM (retest, dose inferred, filed as 0.5); hits give high values
This is part of a sample that, as a whole, favours compounds with a hit. Of some 79,000 tested, about 15% had one in any assay. Where a SMILES comes first, the peptide text is derived from it. The star is where a group is joined. Trt = c1ccc(C(c2ccccc2)(c2ccccc2)*)cc1; Cbz = O=C(OCc1ccccc1)*
readout.label: growth inhibition (%)

{"columns": ["molecule", "readout.label", "u", "value.observed"],
 "data": [
  ["OC1(c2ccccc2)CCC2CCCCC2C1 (stereo not drawn)", "growth inhibition", "%", -14],
  ["CCOC(=O)CCC(NC(=O)C(CSC(c1ccccc1)(c1ccccc1)c1ccccc1)NC(=O)OCc1ccccc1)C(=O)NC(CCC(=O)OCC)C(=O)NC(CCC(=O)OCC)C(=O)NC(CCC(=O)OCC)C(=O)NC(CSC(c1ccccc1)(c1ccccc1)c1ccccc1)C(=O)OC (stereo not drawn) (Cbz-C(Trt)E(OEt)E(OEt)E(OEt)E(OEt)C(Trt)-OMe; configuration not given here)", "growth inhibition", "%", 2],
  ["CCCCCCCCCCCCSCCCN", "growth inhibition", "%", -9],
  ["C1=c2ccccc2=C2C(=C(c3ccccc3)C(c3ccccc3)=NN2c2ccccc2)S1", "growth inhibition", "%", -1],
  ["Oc1ccc(Cl)cc1-c1ccccc1", "growth inhibition", "%", 11],
  ["O=C(N/C(=C\\c1ccc2c(c1)OCO2)c1nc2ccccc2s1)c1ccccc1", "growth inhibition", "%", 18],
  ["OC(CCN1CCCCC1)(Cc1ccccc1)c1cccc(Cl)c1 (stereo not drawn)", "growth inhibition", "%", 17],
  ["O=[N+]([O-])c1ccc2c(c1)[nH]c1ccccc12", "growth inhibition", "%", -139],
  ["O=C(O)CC1c2ccc3ccccc3c2CCC1c1ccccc1 (stereo not drawn)", "growth inhibition", "%", 78],
  ["CC(=O)Oc1cc2c(=O)oc3c(OC(C)=O)c(OC(C)=O)c(OC(C)=O)c4c(=O)oc(c1OC(C)=O)c2c34", "growth inhibition", "%", 39],
  ["CCNC(=O)COc1ccc(Cl)cc1Cl", "growth inhibition", "%", 8],
  ["c1ccc(Oc2ccc(Nc3c4ccccc4nc4ccccc34)cc2)cc1", "growth inhibition", "%", 13],
  ["C/C=C\\c1cc2c(cc1CC#N)OCO2", "growth inhibition", "%", 17],
  ["CS(=O)(=O)OCCN(CCOS(C)(=O)=O)c1ccc(N=Nc2ccccc2)cc1", "growth inhibition", "%", 22],
  ["CCOc1ccc2c(ccc(/C=C\\c3cc(C)c4cccnc4c3O)[n+]2C)c1", "growth inhibition", "%", 95],
  ["COC(=O)c1ccc2c(c1)C(O)NC(=O)O2 (stereo not drawn)", "growth inhibition", "%", 21],
  ["COc1cc(C(c2cc3c(cc2O)OCO3)N2CCOCC2)ccc1O (stereo not drawn)", "growth inhibition", "%", -5],
  ["C[C@]12CC[C@@H]3c4cc(OCC(F)(F)F)c(O)cc4CC[C@H]3[C@@H]1CC[C@@H]2O", "growth inhibition", "%", -6],
  ["O=C(Nc1ccc(Cl)cc1)Nc1cc(Cl)ccc1O", "growth inhibition", "%", -3],
  ["Nc1ccc2nc(Nc3ccc(Cl)c(Cl)c3)cnc2c1", "growth inhibition", "%", 25],
  ["O=C(CNc1cccc(Cl)c1)Nn1c(-c2ccccc2)nc2ccccc2c1=O", "growth inhibition", "%", 4],
  ["COC(=O)CC1(O)c2cc(OC)c3cccc(OC)c3c2CCC1(C)C(=O)OC (stereo not drawn)", "growth inhibition", "%", 92],
  ["CCC/C=C1/OC(=O)C2=C[C@H]3CC[C@]21[C@]1(OC(=O)C2=C1CCC=C2)[C@H]3CCC", "growth inhibition", "%", 14],
  ["CC1(C)N([O-])[N+](=O)C1(Br)c1ccccc1 (stereo not drawn)", "growth inhibition", "%", 25],
  ["Cc1cc(O)cc2c1c(=O)c1ccccc1n2C", "growth inhibition", "%", 23],
  ["N#CC(CC(=O)O)C(c1cccc2ccccc12)c1cccc2ccccc12 (stereo not drawn)", "growth inhibition", "%", 17],
  ["O=C(c1ccccc1)C(Br)C(Br)c1ccc(Cl)c(Cl)c1 (stereo not drawn)", "growth inhibition", "%", 73],
  ["CN(C)Cc1ccccc1C(=O)C(=O)c1ccccc1CN(C)C", "growth inhibition", "%", -4]
]}
